Task for the reader: assign each of the following compounds its reported SODIUM.
organism: Rattus norvegicus; experiment: DrugMatrix - Regimen: Daily Repeat; type: toxicity, organism-based, Sprague-Dawley; parameters: regimen Daily Repeat, gender Male, age 6-8 weeks; conditions: in vivo, po, 0 mg/kg, 72 h, tissue Plasma, route oral GAVAGE, dose level Control, time 3 day, vehicle 100 % WATER
Numbers only, in MEQ/L.

Worked examples follow.
[[record]]
compound = "CC1COc2c(N3CCN(C)CC3)c(F)cc3c(=O)c(C(=O)O)cn1c23 (stereo not given) [OFLOXACIN]"
output_unit = "MEQ/L"
obs_value = 142.53

[[record]]
compound = "COc1ccc(C(CN(C)C)C2(O)CCCCC2)cc1 (stereo not given) [VENLAFAXINE]"
output_unit = "MEQ/L"
obs_value = 144.22

[[record]]
compound = "Nc1ccc(S(=O)(=O)Nc2ccnn2-c2ccccc2)cc1 [SULFAPHENAZOLE]"
output_unit = "MEQ/L"
obs_value = 140.5

[[record]]
compound = "CN1CCC[C@H]1c1cccnc1 [NICOTINE]"
output_unit = "MEQ/L"
obs_value = 142.53

[[record]]
compound = "NCC1(CC(=O)O)CCCCC1 [GABAPENTIN]"
output_unit = "MEQ/L"
obs_value = 143.17

[[record]]
compound = "CC(C)(S)[C@@H](N)C(=O)O [PENICILLAMINE]"
output_unit = "MEQ/L"
obs_value = 147.02

[[record]]
compound = "C[C@]12Cc3c[nH]nc3C[C@@H]1CC[C@@H]1[C@@H]2CC[C@@]2(C)[C@H]1CC[C@]2(C)O [STANOZOLOL]"
output_unit = "MEQ/L"
obs_value = 144.12

[[record]]
compound = "COc1cccc(C2(O)CCCCC2CN(C)C)c1 (stereo not given) [TRAMADOL]"
output_unit = "MEQ/L"
obs_value = 144.12


Parameter requested: SODIUM. Apply to each item below.
1. CN1CCN(C(=O)OC2c3nccnc3C(=O)N2c2ccc(Cl)cn2)CC1 (stereo not given) [ZOPICLONE]
2. Cn1cnc([N+](=O)[O-])c1Sc1ncnc2nc[nH]c12 [AZATHIOPRINE]

[144.43, 140.58]
